# target.entity: human recombinant COX-2 (Homo sapiens)
# Construct: purchased Cayman Chemical 560131
# Sequence (P35354 18-604): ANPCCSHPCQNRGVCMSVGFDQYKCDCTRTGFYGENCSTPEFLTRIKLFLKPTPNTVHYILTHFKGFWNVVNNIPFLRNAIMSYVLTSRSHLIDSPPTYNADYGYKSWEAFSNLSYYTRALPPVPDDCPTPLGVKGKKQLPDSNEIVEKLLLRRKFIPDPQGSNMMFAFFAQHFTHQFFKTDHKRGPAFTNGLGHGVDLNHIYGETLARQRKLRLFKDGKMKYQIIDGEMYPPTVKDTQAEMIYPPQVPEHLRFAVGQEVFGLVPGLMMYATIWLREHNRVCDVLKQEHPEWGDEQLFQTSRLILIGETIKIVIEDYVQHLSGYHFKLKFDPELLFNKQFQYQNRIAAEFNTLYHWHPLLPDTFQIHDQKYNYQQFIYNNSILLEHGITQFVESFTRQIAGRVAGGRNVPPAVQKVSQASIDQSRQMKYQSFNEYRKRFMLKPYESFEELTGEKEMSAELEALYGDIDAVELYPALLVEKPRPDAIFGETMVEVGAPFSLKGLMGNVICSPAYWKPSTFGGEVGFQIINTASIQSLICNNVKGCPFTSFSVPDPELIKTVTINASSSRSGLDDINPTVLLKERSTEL
# measurement.notes: In vitro COX-2 inhibition, enzyme immunoassay kit (Cayman item no. 560131)
# Type: biochemical
# measurement.setup: pIC50 = −Log (IC50) of the COX-2 IC50; read-out: Activity (experimental pIC50, COX-2) (converted)
metric.name: IC50 (µM)

Examples from the recorded data:
[
  {
    "compound": "O=C(CCl)Sc1nnc(COc2ccc3ccccc3c2)n1N=Cc1ccccc1O [Compound 10b]",
    "target.entity": "human recombinant COX-2 (Homo sapiens)",
    "IC50 [µM]": 0.14
  },
  {
    "compound": "COc1ccc(C=Nn2c(COc3ccc4ccccc4c3)nnc2SC(=O)CCl)cc1 [Compound 10d]",
    "target.entity": "human recombinant COX-2 (Homo sapiens)",
    "IC50 [µM]": 0.11
  },
  {
    "compound": "Nc1ncc(Sc2nnc(COc3ccc4ccccc4c3)n2N=Cc2ccccc2O)o1 [Compound 11b]",
    "target.entity": "human recombinant COX-2 (Homo sapiens)",
    "IC50 [µM]": 0.0899
  },
  {
    "compound": "COc1ccc(C=Nn2c(COc3ccc4ccccc4c3)nnc2Sc2cnc(N)o2)cc1 [Compound 11d]",
    "target.entity": "human recombinant COX-2 (Homo sapiens)",
    "IC50 [µM]": 0.0601
  },
  {
    "compound": "O=C(CCl)Sc1nnc(COc2ccc3ccccc3c2)n1N=Cc1ccccc1 [Compound 10a]",
    "target.entity": "human recombinant COX-2 (Homo sapiens)",
    "IC50 [µM]": 0.13
  },
  {
    "compound": "Nc1ncc(Sc2nnc(COc3ccc4ccccc4c3)n2N=Cc2ccccc2O)s1 [Compound 12b]",
    "target.entity": "human recombinant COX-2 (Homo sapiens)",
    "IC50 [µM]": 0.0601
  },
  {
    "compound": "O=C(CCl)Sc1nnc(COc2ccc3ccccc3c2)n1N=Cc1cccc([N+](=O)[O-])c1 [Compound 10c]",
    "target.entity": "human recombinant COX-2 (Homo sapiens)",
    "IC50 [µM]": 0.12
  },
  {
    "compound": "Oc1ccccc1C=Nn1c(S)nnc1COc1ccc2ccccc2c1",
    "target.entity": "human recombinant COX-2 (Homo sapiens)",
    "IC50 [µM]": 0.19
  }
]

(1) COc1ccc(C=Nn2c(S)nnc2COc2ccc3ccccc3c2)cc1
(2) Nc1ncc(Sc2nnc(COc3ccc4ccccc4c3)n2N=Cc2ccccc2)s1 [Compound 12a]
query: Please let me know which one, 1 or 2 , has a lower measured IC50 value. Reply briefly: the label of your chosen item.
result: 2

* * *

# target.entity: bovine COX-1 (Ovis aries, UniProt P05979)
# Sequence (P05979 25-600): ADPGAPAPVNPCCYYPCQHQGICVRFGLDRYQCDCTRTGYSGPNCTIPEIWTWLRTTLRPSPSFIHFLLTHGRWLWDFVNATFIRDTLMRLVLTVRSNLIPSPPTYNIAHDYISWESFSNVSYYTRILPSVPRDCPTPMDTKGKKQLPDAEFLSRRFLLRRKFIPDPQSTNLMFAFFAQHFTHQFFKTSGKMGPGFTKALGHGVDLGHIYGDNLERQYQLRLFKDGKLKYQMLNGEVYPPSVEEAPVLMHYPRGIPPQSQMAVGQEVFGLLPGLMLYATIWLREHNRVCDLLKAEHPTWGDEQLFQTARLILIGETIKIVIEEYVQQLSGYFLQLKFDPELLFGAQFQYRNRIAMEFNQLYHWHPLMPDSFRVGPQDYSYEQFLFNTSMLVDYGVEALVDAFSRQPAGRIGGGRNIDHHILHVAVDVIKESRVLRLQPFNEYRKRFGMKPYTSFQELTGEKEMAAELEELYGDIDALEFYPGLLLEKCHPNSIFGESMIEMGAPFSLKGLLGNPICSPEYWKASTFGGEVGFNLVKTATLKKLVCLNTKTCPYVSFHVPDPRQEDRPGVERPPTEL
metric.name: IC50 (µM)

[
  {
    "compound": "O=C(CCl)Sc1nnc(COc2ccc3ccccc3c2)n1N=Cc1ccccc1O [Compound 10b]",
    "target.entity": "bovine COX-1 (Ovis aries, UniProt P05979)",
    "IC50 [µM]": 9.89
  },
  {
    "compound": "O=[N+]([O-])c1cccc(C=Nn2c(S)nnc2COc2ccc3ccccc3c2)c1",
    "target.entity": "bovine COX-1 (Ovis aries, UniProt P05979)",
    "IC50 [µM]": 9.43
  },
  {
    "compound": "Nc1ncc(Sc2nnc(COc3ccc4ccccc4c3)n2N=Cc2cccc([N+](=O)[O-])c2)o1 [Compound 11c]",
    "target.entity": "bovine COX-1 (Ovis aries, UniProt P05979)",
    "IC50 [µM]": 12.6
  },
  {
    "compound": "COc1ccc(C=Nn2c(COc3ccc4ccccc4c3)nnc2Sc2cnc(N)s2)cc1 [Compound 12d]",
    "target.entity": "bovine COX-1 (Ovis aries, UniProt P05979)",
    "IC50 [µM]": 13
  }
]
